protocol.description: Human HepG2 cell viability assay in 384 well format
Format: toxicity, cell-based
Set-up: dose 125 nL, time 70.5 hour; concentration not given beside the values
experimental.conditions: HepG2 cells, read-out: Inhibition
metric.name: cytotoxicity at 70.5 h
Write the figure, then the unit, nothing else.

Examples with answers:
c1ccc(COC[C@]23COC[C@H]2CN(c2ncccn2)C3)nc1: -11.9%
CCc1nnc2n1CCN(C(=O)c1ccc3c(c1)nnn3C)C2: -0.825%
CC(C)C(=O)NCCCn1ncc2c(Cl)cccc21: -0.542%
COc1ccc(S(=O)(=O)NC(=O)c2c(C)noc2C(C)C)cc1OC: -2.97%
CCC(CO)N(Cc1ccccn1)C(=O)c1ccc(CSC)o1 (stereo unspecified): -0.517%
CCc1nccn1CC(=O)N1C[C@H]2CC[C@@H]1CN(c1ncccn1)C2: -0.942%

Entry CN(Cc1ccncc1)C1COC2(CCN(Cc3ccccn3)CC2)C1 (stereo unspecified) ; cytotoxicity at 70.5 h = -7%

# credit: ChEMBL document CHEMBL3507680
